Data origin, for the record: patent US9593156B2

Biological target: type B insulin receptor (IR-B) (Homo sapiens)
Construct: expressed in transfected cells; host or cells: HEK293
Test: Receptor kinase activity (phosphorylation) assay, type B insulin receptor
Format: cell-based
Conditions: Table 14
EXPERIMENTAL_READOUT: IR-B (%)

>>> test_result("B^1(H5,10Y16L17R29)30-C^1des9-12-A^1(H8,K14,N18,21) (GPEHLCGAHLVDALYLVCGDRGFYFNKRTGYGSSSRRGIVDECCHRSCDLKRLENYCN) [DP8Mut3KA14]")
12.6
>>> test_result("B1,A14-10K B^1(H5,10Y16L17R29)30-C^1des9-12-A^1(H8,K14,N18,21) (GPEHLCGAHLVDALYLVCGDRGFYFNKRTGYGSSSRRGIVDECCHRSCDLKRLENYCN) [MIU-79]")
0.2
>>> test_result("B1,A14-10K B^1(H5,10Y16L17R29)29:A^1(H8K14N18,21) (chain 1 GPEHLCGAHLVDALYLVCGDRGFYFNKR; chain 2 GIVDECCHRSCDLKRLENYCN) [di-10K-TC]")
2.1
>>> test_result("B^1(H5,10Y16L17K29)29:A^1(H8,N18,21) (chain 1 GPEHLCGAHLVDALYLVCGDRGFYFNKK; chain 2 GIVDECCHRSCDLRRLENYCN) [DP3(TC)]")
33.1
>>> test_result("B^1(H5,10Y16L17R29)30-C^1des9-12-A^1(H8,N18,21) (GPEHLCGAHLVDALYLVCGDRGFYFNKRTGYGSSSRRGIVDECCHRSCDLRRLENYCN) [MIU-43]")
16.7
